- subject-of-test: Rat SERT (Rattus norvegicus)
- Construct: A rat brain without cerebellum (Zivic Laboratories, Inc.—Pittsburgh, Pa.) was homogenized; tissue Zivic Laboratories, Inc; host or cells: rat brain without cerebellum, membranes
- test: Rat brain SERT binding ([3H]-citalopram displacement)
- experimental-conditions: rat brain membranes without cerebellum, 0.6 nM [3H]-citalopram, 60 min at 25° C.; read-out: Rat SERT Ki
# Ki per entry
All answers are understood in nM, so give the number only.

Before answering, review these 3 worked examples.
>  <molecule>
COc1ccc(C2CN(C)Cc3cc(OCCCN4CC(F)(F)C4)ccc32)cc1 (centres unmarked) [Example 182]

>  <subject-of-test>
Rat SERT (Rattus norvegicus)

>  <Ki, nM>
2

$$$$
>  <molecule>
COc1ccc(C2CN(C)Cc3cc(OCC4CN(C)CCO4)ccc32)cc1 (mixture of isomers) [Example 251]

>  <subject-of-test>
Rat SERT (Rattus norvegicus)

>  <Ki, nM>
12

$$$$
>  <molecule>
COc1ccc(C2CN([C@H](C)c3ccccc3)Cc3cc(OCCCN4CCOCC4)ccc32)cc1 (single isomer, unassigned) [Example 75]

>  <subject-of-test>
Rat SERT (Rattus norvegicus)

>  <Ki, nM>
79

$$$$

Which Ki is reported with Rat SERT (Rattus norvegicus) for this entry: CN1Cc2cc(OCCCN3CCC(F)CC3)ccc2C(c2ccc(Br)nc2)C1 (centres unmarked) [Example 186] ?
10

Same read-out for CCN1CCN(CCCOc2ccc3c(c2)CN(C)CC3c2ccc(OC)cc2)CC1 (centres unmarked) [Example 198] ?
2

Also, COc1ccc(C2CN(C)Cc3cc(OCCCN4CCC(F)CC4)ccc32)cc1F (racemic) [Example 142] please.
4

Likewise for COc1ccc(C2CN(C)Cc3cc(OC4CCNCC4)ccc32)cc1 (centres unmarked) [Example 148] ?
3

And then CN1Cc2cc(OCCCN3CCC(F)CC3)ccc2C(c2ccc(-n3ccnc3)nc2)C1 (centres unmarked) [Example 192] , what is it?
9

----------
- subject-of-test: Rat SERT (Rattus norvegicus, UniProt P31652)
- Construct: A rat brain without cerebellum (Zivic Laboratories, Inc.—Pittsburgh, Pa.) was homogenized; tissue Zivic Laboratories, Inc; host or cells: rat brain without cerebellum, membranes
- Sequence (P31652 whole entry): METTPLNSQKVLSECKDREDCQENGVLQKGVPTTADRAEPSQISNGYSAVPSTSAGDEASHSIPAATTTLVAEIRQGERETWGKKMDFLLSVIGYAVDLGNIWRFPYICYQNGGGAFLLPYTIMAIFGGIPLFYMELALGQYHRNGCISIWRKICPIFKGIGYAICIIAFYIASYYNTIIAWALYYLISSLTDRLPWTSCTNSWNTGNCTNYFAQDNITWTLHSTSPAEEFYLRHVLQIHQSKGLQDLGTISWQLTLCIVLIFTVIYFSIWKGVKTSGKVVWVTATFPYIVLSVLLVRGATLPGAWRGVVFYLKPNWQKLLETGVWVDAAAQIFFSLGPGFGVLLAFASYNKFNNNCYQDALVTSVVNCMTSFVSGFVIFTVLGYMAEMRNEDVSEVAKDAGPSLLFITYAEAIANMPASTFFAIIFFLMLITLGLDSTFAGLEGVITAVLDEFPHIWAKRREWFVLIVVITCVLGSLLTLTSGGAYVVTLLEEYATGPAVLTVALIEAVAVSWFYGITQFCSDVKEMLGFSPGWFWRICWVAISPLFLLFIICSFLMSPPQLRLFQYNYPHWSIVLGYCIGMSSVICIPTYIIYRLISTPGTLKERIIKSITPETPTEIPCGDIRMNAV
- test: Rat brain SERT binding ([3H]-citalopram displacement)
- experimental-conditions: rat brain membranes without cerebellum, 0.6 nM [3H]-citalopram, 60 min at 25° C.; read-out: Rat SERT Ki
pKi: −log10 of the molar value.
Param threshold (8) applies to pKi; output y when value >= threshold, n when value < threshold.

Recorded results for 2 compounds are shown here.
>  <compound>
COc1ccc(C2CN(CCCO)Cc3cc(OCCCN4CCCCC4)ccc32)cc1 (centres unmarked)

>  <group>
n

$$$$
>  <compound>
COc1ccc(C2CN(C)Cc3cc(OCCCN4CCC(F)CC4)ccc32)cc1F (single isomer, unassigned) [Example 144]

>  <group>
y

$$$$

Threshold query (pKi >= 8) on COc1ccc(C2CN(C)Cc3cc(OCCCN4CCOC(CO)C4)ccc32)cc1 (centres unmarked)
y

----------
Observed log10 of Ki values for human H3 receptor (Homo sapiens, UniProt Q9Y5N1) are listed in what follows.
// stored as log10 of Ki expressed in nM

>  <molecule>
COc1ccc(C2CN(C)Cc3cc(OCCCN4CCC(CCO)CC4)ccc32)cc1 (centres unmarked) [Example 26]

>  <log10 of Ki>
1.08

$$$$

What value of log10 of Ki has been recorded for this entry: COc1ccc(C2CN(C)Cc3cc(CCCCN4CCN(C(C)C)CC4)ccc32)cc1 (centres unmarked) [Example 283]
1.11

Proceed to COc1ccc(C2CN(C)Cc3cc(OCCCN4CCN(C)CC4)ccc32)cc1 (centres unmarked) [Example 197]
1.18

What do you have for CN1Cc2cc(CCCCN3CCCCC3)ccc2C(c2cccnc2)C1 (centres unmarked) [Example 273] ?
0.70

Thanks! And COc1ccc(C2CN(C)Cc3cc(OCCC4CCCN4C)ccc32)cc1 (single isomer, unassigned) [Example 240B] ?
1.32

Now the molecule CN1Cc2cc(OCCCN3CCC(F)CC3)ccc2C(c2ccc(-n3cccn3)nc2)C1 (centres unmarked) [Example 194]
0.00

Follow-up item: COc1ccc(C2CN(C)Cc3cc(OCCCN4CCN(C(=O)c5cn(C)cn5)CC4)ccc32)cc1 (centres unmarked) [Example 14]
3.30

Further, for COc1ccc(C2CN(C)Cc3cc(OCCCN4CCC[C@@H]4CO)ccc32)cc1 (some centres unmarked) [Example 30] ?
0.48

----------
- subject-of-test: Rat SERT (Rattus norvegicus, UniProt P31652)
- Construct: A rat brain without cerebellum (Zivic Laboratories, Inc.—Pittsburgh, Pa.) was homogenized; tissue Zivic Laboratories, Inc; host or cells: rat brain without cerebellum, membranes
- test: Rat brain SERT binding ([3H]-citalopram displacement)
- experimental-conditions: rat brain membranes without cerebellum, 0.6 nM [3H]-citalopram, 60 min at 25° C.; read-out: Rat SERT Ki
Below, each of the molecules is paired with its reported log10 of Ki value.
Recorded Ki (log10, nM)

Known log10 of Ki results, listed for orientation:
>  <molecule>
CSc1ccc(C2CN(C)Cc3cc(OCC4CCN(CCF)CC4)ccc32)cc1 (centres unmarked) [Example 178]

>  <log10 of Ki>
0.78

$$$$
>  <molecule>
COc1ccc(C2CN(C)Cc3cc(OCCCN4CCC(O)CC4)ccc32)cc1 (centres unmarked) [Example 21]

>  <log10 of Ki>
0.30

$$$$
>  <molecule>
COc1ccc(C2CN(C)Cc3cc(OCCCN4CCN(C(=O)c5cccn5C)CC4)ccc32)cc1 (centres unmarked) [Example 13]

>  <log10 of Ki>
1.00

$$$$
>  <molecule>
CSc1ccc(C2CN(C)Cc3cc(OCC4CN(C(C)C)C4)ccc32)cc1 (centres unmarked) [Example 236]

>  <log10 of Ki>
0.78

$$$$

Suppose we examine the molecule COc1ccc(C2CN(C)Cc3cc(OCCCN4CCOC[C@@H]4CO)ccc32)cc1 (mixture of isomers) [Example 183A] ; what log10 of Ki value has been reported?
0.00

CSc1ccc(C2CN(C)Cc3cc(OC4CCN(C5CC5)CC4)ccc32)cc1 (centres unmarked) [Example 247] , same question.
0.70

Same again, this time with COc1ccc(C2CN(C)Cc3cc(OCC4CCN(C5CCC5)CC4)ccc32)cc1Cl (centres unmarked) [Example 106]
1.40

What about this molecule? COc1cccc(C2CN(C)Cc3cc(OC4CCN(C5CCCC5)CC4)ccc32)c1 (centres unmarked) [Example 101]
1.26

----------
- subject-of-test: Rat SERT (Rattus norvegicus)
- Construct: A rat brain without cerebellum (Zivic Laboratories, Inc.—Pittsburgh, Pa.) was homogenized; tissue Zivic Laboratories, Inc; host or cells: rat brain without cerebellum, membranes
- test: Rat brain SERT binding ([3H]-citalopram displacement)
- experimental-conditions: rat brain membranes without cerebellum, 0.6 nM [3H]-citalopram, 60 min at 25° C.; read-out: Rat SERT Ki
Ki strictly under 20 nM means rule met; at 20 nM or over means rule not met.

Check out these entries, answers already filled in.
>  <compound>
COc1ccc(C2CN(C)Cc3cc(OCC4CCN(C(=O)C(F)(F)F)CC4)ccc32)cc1 (centres unmarked)

>  <subject-of-test>
Rat SERT (Rattus norvegicus)

>  <group>
rule not met

$$$$
>  <compound>
C=CCNCCCOc1ccc2c(c1)CN(C)CC2c1ccc(OC)cc1 (centres unmarked)

>  <subject-of-test>
Rat SERT (Rattus norvegicus)

>  <group>
rule met

$$$$
>  <compound>
CN1Cc2cc(OCCCN3CCC(F)CC3)ccc2C(c2ccc(Sc3ncc[nH]3)nc2)C1 (centres unmarked)

>  <subject-of-test>
Rat SERT (Rattus norvegicus)

>  <group>
rule met

$$$$
>  <compound>
CN1Cc2cc(OCCCN3CCOCC3)ccc2C(c2ccc(OC(F)F)cc2)C1 (centres unmarked)

>  <subject-of-test>
Rat SERT (Rattus norvegicus)

>  <group>
rule met

$$$$
>  <compound>
CCCN1CCC(COc2ccc3c(c2)CN(C)CC3c2ccc(OC)cc2)CC1 (centres unmarked)

>  <subject-of-test>
Rat SERT (Rattus norvegicus)

>  <group>
rule met

$$$$
>  <compound>
COc1ccc(C2CN(C)Cc3cc(OCCCN4[C@H](C)CC[C@H]4C)ccc32)cc1 (some centres unmarked)

>  <subject-of-test>
Rat SERT (Rattus norvegicus)

>  <group>
rule met

$$$$
>  <compound>
COc1ccc(C2CN(C)Cc3cc(OC[C@@H]4CN(C5CC5)CCO4)ccc32)cc1 (single isomer, unassigned) [Example 260A]

>  <subject-of-test>
Rat SERT (Rattus norvegicus)

>  <group>
rule met

$$$$

Here is another compound to look at.
Does CN1Cc2cc(OCCCN3CCCCC3)ccc2C(c2cccnc2)C1 (centres unmarked) have Ki strictly under 20 nM?
rule not met

The values you see were collected from patent US20060194837A1.
